Sourced from paper PMC11742495

- test_system: Y537S ERα-SRC3 interaction (Homo sapiens, UniProt P03372, Y537S)
- test: cell-based
- Assay type: cell-based
- settings: Y537S-SRC3 Log(IC50) ± StDev, 1 nM E2, 48 h
readout_name: IC50 (nM)
Answer with a number only, understood to be in nM.

According to the records, this compound C[C@@H]1Cc2c([nH]c3ccccc23)[C@@H](c2c(F)cc(NC3CN(CCCF)C3)cc2F)N1CC(F)(F)CO [Gir, giredestrant] displays IC50 of 47.9

###

- test_system: WT ERα-SRC3 interaction (Homo sapiens, UniProt P03372)
- test: cell-based
- settings: WT-SRC3 IC50 ± StDev, 1 nM E2, 48 h
readout_name: pIC50
Expect pIC50 as a plain number equal to -log10 of the molar concentration.

// pIC50 value for C[C@@H]1Cc2c([nH]c3ccccc23)[C@@H](c2c(F)cc(NC3CN(CCCF)C3)cc2F)N1CC(F)(F)CO [Gir, giredestrant] : 9.17

###

- test_system: Y537S ERα-SRC3 interaction (Homo sapiens, UniProt P03372, Y537S)
- test: cell-based
- Assay type: cell-based
- settings: Y537S-SRC3 IC50 ± StDev, 1 nM E2, 48 h
readout_name: IC50 (nM)
Give the number; nM is assumed, so skip it.

Entry C[C@@H]1Cc2c([nH]c3ccccc23)[C@@H](c2c(F)cc(NC3CN(CCCF)C3)cc2F)N1CC(F)(F)CO [Gir, giredestrant] ; IC50 = 47.6

###

- test_system: WT ERα-SRC3 interaction (Homo sapiens, UniProt P03372)
- Sequence (P03372 1-595): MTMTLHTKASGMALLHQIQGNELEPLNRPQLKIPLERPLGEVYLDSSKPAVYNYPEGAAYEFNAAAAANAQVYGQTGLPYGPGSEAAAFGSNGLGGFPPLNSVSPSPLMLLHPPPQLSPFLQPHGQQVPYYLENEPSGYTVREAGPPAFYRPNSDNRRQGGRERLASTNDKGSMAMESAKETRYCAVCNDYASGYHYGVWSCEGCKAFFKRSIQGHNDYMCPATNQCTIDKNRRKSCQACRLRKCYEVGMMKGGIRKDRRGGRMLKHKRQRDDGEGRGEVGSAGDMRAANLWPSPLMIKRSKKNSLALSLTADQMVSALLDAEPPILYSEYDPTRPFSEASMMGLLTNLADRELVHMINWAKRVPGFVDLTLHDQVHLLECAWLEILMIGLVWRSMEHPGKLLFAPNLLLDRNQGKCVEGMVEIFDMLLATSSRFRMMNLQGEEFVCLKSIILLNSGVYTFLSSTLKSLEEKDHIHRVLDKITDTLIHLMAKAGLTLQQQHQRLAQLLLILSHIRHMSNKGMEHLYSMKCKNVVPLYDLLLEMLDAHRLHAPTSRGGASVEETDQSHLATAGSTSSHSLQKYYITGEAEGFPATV
- test: cell-based
- settings: WT-SRC3 Log(IC50) ± StDev, 1 nM E2, 48 h
readout_name: pIC50
Units for pIC50: none; it is -log10 of a concentration expressed in mol/L.

pIC50 recorded for this molecule, C[C@@H]1Cc2c([nH]c3ccccc23)[C@@H](c2c(F)cc(NC3CN(CCCF)C3)cc2F)N1CC(F)(F)CO [Gir, giredestrant] , is 9.17
